# System: RARb:RXRa (NR concentration 270 nM, RXRa partner concentration 90 nM)
# Experiment: PBM binding z-score (relative to random genomic background probes); higher = stronger binding; sequences stand for … in GC…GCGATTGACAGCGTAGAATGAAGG
Readout name: PBM binding z-score
A bare number is all that is needed in reply.

Guide cases for PBM binding z-score, answers given:
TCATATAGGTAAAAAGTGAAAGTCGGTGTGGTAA	0.366
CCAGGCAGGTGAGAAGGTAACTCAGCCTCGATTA	0.36
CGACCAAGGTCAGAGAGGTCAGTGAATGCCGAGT	5.18

Please look at the following sequence next.
`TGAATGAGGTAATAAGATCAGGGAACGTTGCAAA` tested on RARb:RXRa (NR concentration 270 nM, RXRa partner concentration 90 nM) gave PBM binding z-score: -0.231

---

# Test system: RXRa DBDmut IVT, anti-RXR (DBD mutation: RXRa K156A/R161A, NR concentration 90 nM)
# Experiment: PBM binding z-score (relative to random genomic background probes); higher = stronger binding; sequences stand for … in GC…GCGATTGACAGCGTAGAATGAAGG
The label depends only on PBM binding z-score: condition met if it is at least 1, condition not met if it is smaller.

Please review the entries below; each comes with its answer.
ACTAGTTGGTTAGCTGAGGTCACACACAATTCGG	condition met
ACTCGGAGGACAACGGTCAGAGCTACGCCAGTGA	condition not met
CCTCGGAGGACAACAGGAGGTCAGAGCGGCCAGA	condition not met
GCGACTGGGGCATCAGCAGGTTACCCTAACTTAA	condition not met
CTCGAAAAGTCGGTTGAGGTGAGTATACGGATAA	condition not met
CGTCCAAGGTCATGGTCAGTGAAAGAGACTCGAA	condition met
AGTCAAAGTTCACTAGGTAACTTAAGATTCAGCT	condition met
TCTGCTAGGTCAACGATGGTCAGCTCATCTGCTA	condition met
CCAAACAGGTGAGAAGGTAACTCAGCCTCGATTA	condition not met
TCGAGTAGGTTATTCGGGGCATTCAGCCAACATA	condition not met

(Q) Is PBM binding z-score for `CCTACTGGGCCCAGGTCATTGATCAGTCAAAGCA` at or above 1?
(A) condition not met

(Q) Is PBM binding z-score for `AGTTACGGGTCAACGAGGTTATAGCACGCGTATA` at or above 1?
(A) condition met

(Q) Is PBM binding z-score for `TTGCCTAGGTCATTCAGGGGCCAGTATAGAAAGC` at or above 1?
(A) condition met

---

# System: PPARg:RXRa DBDmut IVT, anti-RXR (DBD mutation: RXRa K156A/R161A, NR concentration 270 nM, RXRa partner concentration 90 nM)
# Experiment: PBM binding z-score (relative to random genomic background probes); higher = stronger binding; sequences stand for … in GC…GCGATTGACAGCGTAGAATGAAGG
Each entry below carries its reported PBM binding z-score.
A bare number is all that is needed in reply.

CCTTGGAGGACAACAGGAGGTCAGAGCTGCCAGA	1.07

Please look at the following sequence next.
Record `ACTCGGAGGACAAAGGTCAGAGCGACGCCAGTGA` . Reported PBM binding z-score: 0.874

---

# Test system: RARg homodimer (NR concentration 270 nM)
# Experiment: PBM binding z-score (relative to random genomic background probes); higher = stronger binding; sequences stand for … in GC…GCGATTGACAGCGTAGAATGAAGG
Readout name: PBM binding z-score
A bare number is all that is needed in reply.

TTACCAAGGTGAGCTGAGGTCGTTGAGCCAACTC	0.933
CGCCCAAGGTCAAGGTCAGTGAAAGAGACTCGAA	7.08
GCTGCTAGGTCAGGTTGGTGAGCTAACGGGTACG	3.34

Record `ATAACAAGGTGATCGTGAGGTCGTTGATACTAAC` . Reported PBM binding z-score: 1.23

Record `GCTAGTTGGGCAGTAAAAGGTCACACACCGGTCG` . Reported PBM binding z-score: 4.7

Record `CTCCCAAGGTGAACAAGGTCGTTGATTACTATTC` . Reported PBM binding z-score: 1.41

Record `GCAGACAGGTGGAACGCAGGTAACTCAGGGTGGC` . Reported PBM binding z-score: -0.569

Record `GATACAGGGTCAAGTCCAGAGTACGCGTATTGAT` . Reported PBM binding z-score: 5.41

Record `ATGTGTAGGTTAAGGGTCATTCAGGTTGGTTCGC` . Reported PBM binding z-score: 3.99
